TARGET_OR_TEST_SYSTEM: UniProt:P41595
ASSAY_INFO: 5HTR2B antagonist activity, calcium mobilization assay in human Maverick/293 cells (serotonin as agonist)
CONDITION_LABEL: intracellular calcium, emission 525 nm, read-out: Ca assay IC50
ENDPOINT_NAME: IC50 (nM)

{"columns": ["COMPOUND", "TARGET_OR_TEST_SYSTEM", "OBSERVED_MEASUREMENT"],
 "data": [
  ["COc1ccc(S(=O)(=O)N[C@H]2CCOC2)cc1C(=O)Nc1ncc(F)cc1F", "UniProt:P41595", 6.7],
  ["COc1ccc(S(=O)(=O)N[C@H](C)CC#N)cc1C(=O)Nc1ccc(F)c(C)c1 (single isomer, unassigned) [Compound 11b]", "UniProt:P41595", 5.1]
]}

1: COc1ccc(S(=O)(=O)N[C@H]2CCOC2)cc1C(=O)Nc1ncccc1Cl
2: COc1ccc(S(=O)(=O)N[C@H](C)CO)cc1C(=O)Nc1ccc(F)cc1 [Compound 49b]
INPUT: Name the one with the greater IC50 value, either 1 or 2 as given. Kindly give the label for the entry you pick.
OUTPUT: 2
(2: 9 nM, 1: 3.8 nM)

====

TARGET_OR_TEST_SYSTEM: 5HTR2B (Homo sapiens, UniProt P41595)
Sequence (P41595 whole entry): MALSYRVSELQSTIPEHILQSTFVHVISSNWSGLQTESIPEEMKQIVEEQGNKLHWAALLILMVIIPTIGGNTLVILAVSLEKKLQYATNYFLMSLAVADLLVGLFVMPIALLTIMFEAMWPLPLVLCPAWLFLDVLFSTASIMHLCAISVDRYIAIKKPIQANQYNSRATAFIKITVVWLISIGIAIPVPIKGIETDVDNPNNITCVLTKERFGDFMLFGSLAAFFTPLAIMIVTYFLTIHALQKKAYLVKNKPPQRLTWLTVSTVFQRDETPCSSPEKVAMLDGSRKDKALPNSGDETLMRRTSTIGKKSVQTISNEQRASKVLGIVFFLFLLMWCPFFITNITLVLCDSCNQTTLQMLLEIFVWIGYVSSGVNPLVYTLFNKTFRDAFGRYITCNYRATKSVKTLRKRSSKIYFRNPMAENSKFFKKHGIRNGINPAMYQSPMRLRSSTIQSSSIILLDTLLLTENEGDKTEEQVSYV
ASSAY_INFO: 5HTR2B antagonist activity, calcium mobilization assay in human Maverick/293 cells (serotonin as agonist)
CONDITION_LABEL: intracellular calcium, emission 525 nm, read-out: Ca assay IC50
Protocol: The 5HTR2B antagonist activity was measured using human Maverick/293 cells in a calcium mobilization assay. […] Intracellular calcium concentration is recorded for 80 seconds by monitoring an emission at a wavelength of 525 nm with an excitation wavelength of 485 nm. Inhibition efficiency of the cell line was determined following the equation: % Inhibition=100%−(D−B)/(S−B)*100%. […]
ENDPOINT_NAME: IC50 (nM)

Examples from the recorded data:
{"columns": ["COMPOUND", "ENDPOINT_NAME", "UNIT_ABBREV", "OBSERVED_MEASUREMENT"],
 "data": [
  ["COc1ccccc1NC(=O)c1cc(S(=O)(=O)N[C@H]2CCOC2)ccc1OC [Compound 166]", "IC50", "nM", 0.16],
  ["[2H]C([2H])([2H])Oc1ccc(S(=O)(=O)N[C@H]2CCOC2)cc1C(=O)Nc1ccc(F)c(C(F)F)c1 [Compound 192]", "IC50", "nM", 0.4],
  ["COc1ccc(S(=O)(=O)N[C@H]2CC[C@H](O)CC2)cc1C(=O)Nc1ccc(F)c(C)n1 [Compound 18]", "IC50", "nM", 222],
  ["COc1ccc(S(=O)(=O)NC2CCCOC2)cc1C(=O)Nc1ccc(F)c(C)n1 (single isomer, unassigned) [Compound 16a]", "IC50", "nM", 1.1]
]}

1: COc1ccc(S(=O)(=O)N[C@H]2C[C@@H](O)C2)cc1C(=O)Nc1cc(C)ccc1Cl [Compound 137b]
2: COc1ccc(S(=O)(=O)NC(C)C(N)=O)cc1C(=O)Nc1ccc(F)c(C)c1 (centres unmarked) [Compound 12]
3: COc1ccc(S(=O)(=O)NC(C)C)cc1C(=O)Nc1ccc(F)c(C)n1 [Compound 25]
4: COc1ccc(S(=O)(=O)N[C@H]2CCOC2)cc1C(=O)Nc1ccc(C#N)cc1 [Compound 104]
INPUT: Please list the entries, largest IC50 first. Write the labels out in the order the request specifies.
OUTPUT: 4, 1, 2, 3
